System: HCT-15 colon
test-method-notes: NCI-60 one-dose screen, 48 h (100 = growth as untreated, 0 = no growth, -100 = all killed)
test-conditions: 10 µM unless noted
Compounds without any hit were thinned out: in the full panel of roughly 83,000, 20% have a hit.
Reported growth is given for each of the following compounds.
Reply with just the number (in %).

Here's what some known entries look like.
compound	uom	growth
N#Cc1c(N)c(C(=O)c2ccc3c(c2)OCCO3)n2c1CCCC2	%	20.9
Cc1cc(C)c2c(n1)sc1c(Nc3ccc(OCc4ccccc4)cc3)ncnc12	%	100

State the recorded growth for this entry: O=C1OCC2=C1C(c1cccc(Br)c1)c1cc3c(cc1N2CCO)OCCO3 (stereo not drawn) 13.9

###

Tested on: SNB-75 CNS
test-method-notes: NCI-60 one-dose screen, 48 h (100 = growth as untreated, 0 = no growth, -100 = all killed)
test-conditions: 10 µM unless noted
The panel holds about 83,000 compounds, 20% with a hit somewhere; the sample as a whole holds those more often.
experimental-readout: growth (%)
Please state the figure in %; there is no need to write the unit.

Worked examples follow.
compound	growth, %
Oc1[nH]c2ccccc2c1/C=c1/ccc2c(c1)N=C(c1ccc(C(F)(F)F)cc1)N=2	48.7
C=CCn1c(C)nc2cc(Nc3nc(Nc4ccc5nc(C)n(CC=C)c5c4)nc4ccccc34)ccc21	90.8
O=C(Nc1ccccc1Cl)Oc1ccc2ccccc2c1	83.7
O=C1C(Cl)=C(N/N=c2/[nH][nH]/c(=N/NC3=C(Cl)C(=O)c4ccccc4C3=O)c3ccccc23)C(=O)c2ccccc21	63.6
CC(C)N1CCN(c2ccncc2S(=O)(=O)N2CCN(C)CC2)CC1	80.6
Cc1[nH]nc2ccc3nc(-c4ccc5[nH]ncc5c4)c4c(c3c12)CCCC4	6.45
COc1cccc(NC(=O)[C@H](C(C)C)n2c(=O)[nH]c3ccccc3c2=O)c1	102
N#Cc1c(N)n(C2OC(CO)C(O)C2O)c2ncnc(N)c12 (stereo unspecified)	-37.5

Form field: reported growth of `CN=C1C=C/C(=N/N=c2/ccn(O)cc2C)C=C1C` 84.4

Moving on to `O=c1c2sc3ncc(Cl)cc3c2nnn1-c1cccc(Cl)c1` 70.1

Proceed to `CC(C)[C@H](CN)NC[C@H](C)NS(=O)(=O)c1ccc(C(C)(C)C)cc1` 84.2

Input `CCNS(=O)(=O)c1ccc(C)cc1` 85.2

Continue with `c1ccc(-c2[nH]c3ccccc3c2-c2ccccc2)cc1` 84.7

Please answer likewise for `Fc1ccc(-c2ccnc3nc(-c4ccncc4)nn23)cc1` 90.1

Entry to check: `Oc1ccc(Cl)cc1-c1cc(-c2ccccc2Cl)[nH]n1` 44.2

Try this compound next: CCCOC(=O)C1c2cc3c(cc2CC(C)C1C(=O)OCCC)OCO3 (stereo unspecified) 85.6

###

Test system: NCI-H23 lung
test-method-notes: NCI-60 one-dose screen, 48 h
test-conditions: 10 µM unless noted
This is part of a sample that, as a whole, favours compounds with a hit. Of some 83,000 tested, about 20% had one in any assay. Active and inactive are the calls of the source. The calls were made as follows: active = growth percent below 10; inactive = the rest.
Return exactly one item of active, inactive

// below: answered compounds
compound	tested-target	cat
CN1CCN(Cc2ccc(NC(=O)c3cncc(C#Cc4cnc5cccnn45)c3)cc2C(F)(F)F)CC1	NCI-H23 lung	active
CCCC(CCC)NCC(O)c1cc(-c2ccc(C(F)(F)F)cc2)nc(C(F)(F)F)c1 (centres undefined)	NCI-H23 lung	active
CCOc1cccc(/C=N/NC(=O)c2ccc(Nc3ccnc(C(F)(F)F)c3)cc2)c1O	NCI-H23 lung	inactive

Now look at this one.
Field: outcome | Entry: COC(=O)C(C)NC1=C(Cl)C(=O)C(NC(C)C(=O)OC)=C(Cl)C1=O (centres undefined) inactive

###

# growth per entry
System: PC-3 prostate
test-method-notes: NCI-60 one-dose screen, 48 h (100 = growth as untreated, 0 = no growth, -100 = all killed)
test-conditions: 10 µM unless noted
Compounds without any hit were thinned out: in the full panel of roughly 83,000, 20% have a hit.
Respond with the bare value in %.

Known growth results, listed for orientation:
compound	growth, %
CNCCCNc1ccnc2cc(Cl)ccc12	1.91
OC(c1cc2cc(Cl)ccc2c2cc(C(F)(F)F)ccc12)C1CCCCN1 (stereo not given)	-83.1

Read the next record carefully.
Consider the compound shown here: `COC(=O)c1cc2oc(/C=N/NC(=O)c3cc4oc(-c5cccc(C(F)(F)F)c5)cc4[nH]3)cc2n1Cc1ccccc1` What is its recorded growth? 90.3

###

Tested on: LOX IMVI melanoma
test-method-notes: NCI-60 one-dose screen, 48 h (100 = growth as untreated, 0 = no growth, -100 = all killed)
test-conditions: 10 µM unless noted
This is part of a sample that, as a whole, favours compounds with a hit. Of some 83,000 tested, about 20% had one in any assay.
experimental-readout: growth (%)
Record the value in %, omitting the unit from your answer.

molecule	uom	growth
O=C(NCC(c1ccsc1)N1CCCCCC1)c1ccc(C(F)(F)F)cc1 (configuration not stated)	%	78.9

Looking for the measured growth of `COc1cccc(NC(=O)c2c(-c3ccccc3)c(-c3ccccc3)n[nH]c2=O)c1` , can you help? 96.3

Same for `COc1ccc(-c2oc(=O)ccc2-c2cc(OC)c(OC)c(OC)c2)cc1F` 67.4

Next up: `CCOC(=O)c1sc2nc(-c3cc4ccccc4o3)cc(-c3ccc(Cl)cc3)c2c1N` 91.6

Also check `CN(C)c1ccc(/C=C(\C#N)c2nc3ccccc3n2C)cc1` 46.2

Another molecule to check: COc1cccc(OCC(O)CN2CCN(c3ccccc3)CC2)c1 (configuration not stated) 104

###

Tested on: DU-145 prostate
test-method-notes: NCI-60 one-dose screen, 48 h
test-conditions: 10 µM unless noted
This is part of a sample that, as a whole, favours compounds with a hit. Of some 83,000 tested, about 20% had one in any assay. Activity calls are given as the source filed them. Rule for the calls: active = growth percent below 10; inactive = the rest.
Use one of these outcomes when replying: true = active, false = inactive

Example entries begin here.
molecule	cat
Nc1nc(N)c2cc(Sc3ccc(Cl)cc3)ccc2n1	false
COc1ccc(/C=C(/C(=O)N2CCN(c3ccccc3)CC2)c2cc(OC)c(OC)c(OC)c2)cc1O	true
CCCCCCCCCCC(C(O)c1ccccc1)N1CCCCC1 (stereo unspecified)	false
O=C(OCc1ccc2c(Br)cc(Br)c(O)c2n1)c1cc2ccccc2[nH]1	true
O=C(Nc1ccc(Br)cc1)Nc1ccccc1Cl	false
SCc1ccc(CS)cc1	false

Hi, sorry to bother you, what did the test record for O=C(/C=C/c1ccccc1)C(Br)C(Br)c1ccccc1 (stereo unspecified) ? true

Next: `CNC(=O)c1ccccc1Sc1ccc2c(/C=C/c3ccccn3)n[nH]c2c1` false

###

Test system: OVCAR-3 ovarian
test-method-notes: NCI-60 one-dose screen, 48 h
test-conditions: 10 µM unless noted
Compounds without any hit were thinned out: in the full panel of roughly 83,000, 20% have a hit. Calls of active or inactive are those of the source. The calls were made as follows: active = growth percent below 10; inactive = the rest.
I would appreciate it if you answered using one of these outcomes: active, inactive

State the result this test recorded for `COc1cc(CN2CCO[C@H](COc3cccc(F)c3)C2)ccc1Cl` . inactive

Now this one: COc1ccc(C2=NN(C=O)C(c3ccc(OS(=O)(=O)c4ccc(C)cc4)c(OC)c3)C2)cc1 (configuration not stated) inactive

Then this molecule: `CCOC(=O)Nc1ccc2nc(-c3cscn3)[nH]c2c1` inactive

Quick one: `CCN(CC)c1ccc(C(=N)c2ccc(N(C)C)cc2)cc1` active

Continue with CC1=C(C(=O)Nc2ccc(F)cc2)C(c2ccc(Cl)cc2)C2=C(CC(C)(C)CC2=O)N1 (configuration not stated) inactive

And what about the molecule `O=C(Nc1ccc2[nH]c3ccccc3c2c1)c1ccccc1Cl` ? inactive

Repeat for the following molecule: CCOC(=O)c1ccccc1SC(C[N+](=O)[O-])c1ccccc1 (configuration not stated) inactive

And for CCOC(=O)C1=C(C)NC(SCc2nnc(-c3ccc(Cl)cc3)o2)=NC1c1ccc(Br)cc1 (configuration not stated) ? inactive

Another molecule: CC1(C)C2CCC(O)(C(=O)O)C1C2 (configuration not stated) inactive

Next up: `COc1cc(/C=C/c2ccc3c(Br)cc(Br)c(O)c3n2)ccc1O` active

###

growth by entry:
Tested on: MDA-MB-231 breast
test-method-notes: NCI-60 one-dose screen, 48 h (100 = growth as untreated, 0 = no growth, -100 = all killed)
test-conditions: 10 µM unless noted
About 83,000 compounds went through this panel and 20% of them were active in at least one assay; those are over-represented in the sample as a whole. The source made the active and inactive calls. Rule for the calls: active = growth percent below 10; inactive = the rest.

Here are 3 compounds together with their reported answers.
compound	tested-target	growth
CN(C)CCOc1nc2c3ccncc3cc(-c3cccc(Cl)c3)c2c2cnccc12	MDA-MB-231 breast	24% (inactive)
N=C(N)c1ccc(-c2ccc(-c3cc(Cl)cc(Cl)c3)o2)nc1	MDA-MB-231 breast	-77.3% (active)
CC(=O)OC1Oc2ccccc2-c2oc3nc(=N)n(C)c-3cc21 (configuration not stated)	MDA-MB-231 breast	112% (inactive)

Can you share its growth? I mean this compound: `FC(F)(F)C1=NNC(c2ccc3ccccc3c2)=NN1` 81.9% (inactive)

Thanks! And `Fc1cc(-c2nnc3sc(-c4ccc(Cl)cc4)nn23)c(Cl)cc1Cl` ? 88.3% (inactive)

Please answer likewise for `Cc1cc(C)c2c(n1)sc1c(Nc3ccc(O)cc3)ncnc12` 59% (inactive)
